target: recombinant full-length human PDE IVa (rhPDEIVa) (Homo sapiens, UniProt P27815, M723I); construct: a cDNA insert encoding for a full-length human PDE IVa enzyme; made in house; host or cells: CHO-K1 cells, stably transfected (also expressing the prostanoid IP receptor); 100,000xg supernatant of the sonicate; experiment: Phosphodiesterase Scintillation Proximity Assay, inhibition of soluble rhPDE IVa (100,000×g supernatant of transfected CHO-K1 cells); type: biochemical; details: read-out: IC50 for inhibition of soluble PDE IVa activity
Sequence (P27815 whole entry M723I): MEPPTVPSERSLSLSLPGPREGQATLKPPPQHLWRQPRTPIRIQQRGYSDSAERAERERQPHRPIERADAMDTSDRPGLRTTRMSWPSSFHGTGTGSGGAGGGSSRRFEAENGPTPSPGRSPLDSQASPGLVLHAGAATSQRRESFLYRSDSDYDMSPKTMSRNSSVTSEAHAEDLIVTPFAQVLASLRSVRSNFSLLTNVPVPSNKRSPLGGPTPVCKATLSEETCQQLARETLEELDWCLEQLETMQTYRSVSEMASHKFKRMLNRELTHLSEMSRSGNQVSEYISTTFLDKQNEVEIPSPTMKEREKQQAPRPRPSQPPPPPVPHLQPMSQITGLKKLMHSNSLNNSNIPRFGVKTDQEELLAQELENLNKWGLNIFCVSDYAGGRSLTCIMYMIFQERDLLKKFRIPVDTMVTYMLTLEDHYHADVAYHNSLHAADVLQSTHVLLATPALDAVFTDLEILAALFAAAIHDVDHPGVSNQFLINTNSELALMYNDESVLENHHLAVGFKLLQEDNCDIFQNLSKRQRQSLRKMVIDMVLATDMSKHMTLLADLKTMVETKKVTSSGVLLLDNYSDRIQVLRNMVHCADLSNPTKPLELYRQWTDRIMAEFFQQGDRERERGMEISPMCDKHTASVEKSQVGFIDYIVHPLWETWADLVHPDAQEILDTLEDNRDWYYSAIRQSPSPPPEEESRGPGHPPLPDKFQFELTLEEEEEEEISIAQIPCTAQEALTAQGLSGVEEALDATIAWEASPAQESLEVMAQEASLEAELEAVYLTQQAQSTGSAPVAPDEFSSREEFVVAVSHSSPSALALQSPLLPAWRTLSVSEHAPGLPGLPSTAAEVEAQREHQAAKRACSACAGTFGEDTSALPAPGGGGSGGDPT
resultType: IC50

May I ask what IC50 has been recorded for COc1ccc([C@H](Cc2ccncc2)c2ccccc2)cc1OC1CCCC1 [CDP 840] ?
9 nM
